- System: Plasmodium falciparum
- experiment description: Plasmodium falciparum sporozoite viability assay
- Format: functional, organism-based
- stated conditions: Plasmodium falciparum
Examples of molecules with documented IC50 follow.
Return type: number; implicit unit nM.

Cc1c(F)cc(C(=O)O)cc1S(=O)(=O)Nc1ccc2c(c1)OCCO2 ... 3790
CNc1cc(C)nc(N2C[C@@H](C(=O)O)[C@H](C3CC3)C2)n1 ... 989
O=C(CCn1cccn1)NS(=O)(=O)N1CCCc2ccccc21 ... 495
CC(=O)N1Cc2ccccc2CC1C(=O)Nc1cc(C)ccn1 (centres undefined) ... 41.2
Cc1cccc(NC2CCN(C(=O)Nc3ccc(F)c(F)c3)CC2)n1 ... 7620
COc1ccc(-c2ccc(C3CNCCO3)nc2)cc1.Cl (centres undefined) ... 73
Cc1csc(NC(=O)c2cnc(C3CCCN3)cn2)n1.Cl (centres undefined) ... 153
CCN1CCN(Cc2coc(-c3cccc(F)c3)n2)CC1 ... 800
c1cncc(OCc2nc(C3CC3)nn2-c2ccc3c(c2)OCCO3)c1 ... 3840
CSc1cc2c(cc1NC(=O)NCCn1ccnc1)OCCO2 ... 126

Q: For the molecule shown here, COc1cc(NC(=O)c2ccc(CN3CC[C@H](O)C3)cc2)cc(OC)c1 , give the reported IC50.
A: 175

Q: Name the reported IC50 value associated with the molecule CC(C)C(=O)N1CCN(Cc2csc(-c3ncccn3)n2)CC1
A: 1420

###

- System: Plasmodium falciparum
- experiment description: Calibr Malaria Delayed Death Assay SOP
- Type: functional, organism-based
measurement kind: pIC50
Form field (numeric): enter value without unit.

CCc1ncc2c(n1)CN(CC(=O)Nc1ccc(Cl)cn1)CC2 ... 5.772
CCN1CCC2(CC1)CC(NCc1cccc(C)n1)c1ccccc1O2.O=C(O)C(F)(F)F.O=C(O)C(F)(F)F.O=C(O)C(F)(F)F (stereo unspecified) ... 6.22
CC(NCC1CCN(CCO)CC1)c1ccc(F)c(Cl)c1 (stereo unspecified) ... 6.184
CC(=O)N(c1ccc(F)cc1)c1nc(CN2CCCC2C(C)C)cs1 (stereo unspecified) ... 6.177
FC1(F)CCN(Cc2cccnc2)CC12CCN(c1ccccc1)C2.O=C(O)C(F)(F)F.O=C(O)C(F)(F)F.O=C(O)C(F)(F)F (stereo unspecified) ... 5.955
CC(C)c1nccc(C2(c3ccccc3Cl)CCNCC2)n1 ... 6.087

Q: What does the record list as pIC50 for COc1ccc(-c2c(C)nn3c(=N)c(C#N)n[nH]c23)cc1OC ?
A: 6.297

Q: Name the recorded pIC50 for COCCC1(CNC(=O)Nc2ccnc(C)c2)CCCC1 .
A: 6.054

Q: Requested field: pIC50. Item: CCN1CCC2(CC1)CC(NCc1cccs1)c1ccccc1O2.O=C(O)C(F)(F)F.O=C(O)C(F)(F)F (stereo unspecified)
A: 6.431

Q: Given the molecule CN1CCC(O)(CNCc2ccc(F)c(C(F)(F)F)c2)CC1 , what is its reported pIC50?
A: 6.096

Q: Look up pIC50: Cc1ccc(-c2ccc(C3CNCCO3)nc2)cc1.Cl (stereo unspecified)
A: 6.712

Q: Data request, read-out pIC50, for CCNc1ccnc(CN2CCCC2C(=O)Nc2nccs2)c1 (stereo unspecified)
A: 6.462

Q: Which value of pIC50 has been reported for CN(Cc1ncc(C(C)(C)C)o1)CC1CCCN1c1cccnn1 (stereo unspecified) in the records?
A: 5.852

Q: So what's the measured pIC50 for this one? CC(C)CN1CCCC1c1ccc(C(=O)Nc2cccnc2)s1 (stereo unspecified)
A: 6.101
